tested on: NCI-H292 lung cancer cells; test: FDA drug screening, complete media vs cholesterol-free media without statin (TABLE 1); assay type: cell-based, human; conditions: Complete minus Cholesterol-free; greater than 0 enhanced anti-cancer activity, about 0 neutral, below 0 antagonist
Structures can show the parent of a compound that is named as a salt.
Property: Difference
Write the number on its own, no unit after it.

Worked examples, 5 compounds total:
>>> assay_value("CC(=O)OCC(=O)[C@@]1(OC(C)=O)[C@@H](C)C[C@H]2[C@@H]3C[C@H](F)C4=CC(=O)C=C[C@]4(C)[C@@]3(F)[C@@H](O)C[C@@]21C")
"−0.10"
>>> assay_value("CO[C@@]1(NC(=O)Cc2cccs2)C(=O)N2C(C(=O)O)=C(COC(N)=O)CS[C@@H]21")
"−0.13"
>>> assay_value("N#Cc1cc(NC(=O)C(=O)O)c(Cl)c(NC(=O)C(=O)O)c1.NC(CO)(CO)CO.NC(CO)(CO)CO [Lodoxamide (tromethamine)]")
"−0.13"
>>> assay_value("CC(=O)Oc1cccc2c1C(=O)c1c(OC(C)=O)cc(C(=O)O)cc1C2=O")
"−0.13"
>>> assay_value("CC1CCCC(C)N1CCCC(O)(c1ccccc1)c1ccccn1 (stereo not shown) [Pirmenol (hydrochloride)]")
"−0.15"

The value of Difference measured for the compound CCC(=O)NCC[C@@H]1CCc2ccc3c(c21)CCO3 turned out to be −0.10

// field: Difference; key: C[C@H](O)C(=O)Nc1c(I)c(C(=O)NC(CO)CO)c(I)c(C(=O)NC(CO)CO)c1I ; value = −0.15

---

system: NCI-H292 lung cancer cells; assay: FDA drug screening, complete media vs cholesterol-free media with simvastatin (TABLE 2); type: cell-based, human; settings: complete media minus cholesterol-free media + simvastatin; >0 enhanced anti-cancer activity, about 0 neutral, <0 antagonist
Structures can show the parent of a compound that is named as a salt.
Could you please classify the records by Difference using these ranges: c1 = under 0.06, c2 = from 0.06 up to 0.3, c3 = 0.3 and over

Observe how each entry below is paired with its result.
>>> label("CCCSc1nc(N[C@@H]2C[C@H]2c2ccc(F)c(F)c2)c2nnn([C@@H]3C[C@H](OCCO)[C@@H](O)[C@H]3O)c2n1")
"c3"
>>> label("CCCOc1ccc(S(=O)(=O)N2CCN(CCO)CC2)cc1-c1nc2c(CCC)cn(CC)c2c(=O)[nH]1 [Mirodenafil (dihydrochloride)]")
"c2"
>>> label("Cc1ccsc1C(=CCCN1CCC[C@@H](C(=O)O)C1)c1sccc1C [Tiagabine (hydrochloride)]")
"c2"
>>> label("CC/C(=C(/CC)c1ccc(O)cc1)c1ccc(O)cc1")
"c2"

Query: Hi, small favor: classify C[C@@H]1C[C@H]2[C@@H]3CCC4=CC(=O)C=C[C@]4(C)[C@@]3(F)[C@@H](O)C[C@]2(C)[C@@]1(O)C(=O)COP(=O)([O-])[O-].[Na+].[Na+] [Dexamethasone phosphate disodium] by its Difference when you get a moment.
Result: c3

Query: Dear colleague, I would appreciate it if you could identify the bin for CCOC(=O)C1=C[C@]2(CC)CCCN3CCc4c(n1c1ccccc41)[C@@H]32 and reply at your convenience.
Result: c1

Query: Dear colleague, I would appreciate it if you could identify the bin for CC(C)COCC(CN(Cc1ccccc1)c1ccccc1)N1CCCC1 (centres unmarked) [Bepridil hydrochloride] and reply at your convenience.
Result: c2

---

tested on: NCI-H292 lung cancer cells; assay: FDA drug screening, complete media vs cholesterol-free media without statin (TABLE 1); format: cell-based, human; settings: NCI-H292 cells, complete media
Counter-ions that a name gives are not always drawn.
Property: Complete
Hey, just send me the number, nothing else.

>>> assay_value("O=S(=O)(O)Oc1ccc(C(c2ccc(OS(=O)(=O)O)cc2)c2ccccn2)cc1 [Sodium Picosulfate]")
1.043
>>> assay_value("C[C@H](O)C(=O)O")
0.8145

// recorded Complete for CCOC(=O)[C@H](CCc1ccccc1)N[C@@H](C)C(=O)N(CC(=O)O)C1Cc2ccccc2C1 [Delapril (hydrochloride)] : 0.9182

// CC(O)C(=O)O.CCOc1ccc2nc3cc(N)ccc3c(N)c2c1 [Ethacridine (lactate)] : Complete value = 0.04483

Record summary for CCn1cc(C(=O)O)c(=O)c2ccc(C)nc21 : reported Complete = 0.9692

Looking up CCOC(=O)CCC(=O)O[C@H]1[C@H](O[C@@H]2[C@@H](C)[C@H](O[C@H]3C[C@@](C)(OC)[C@@H](O)[C@H](C)O3)[C@@H](C)C(=O)O[C@H](CC)[C@@](C)(O)[C@H](O)[C@@H](C)C(=O)[C@H](C)C[C@@]2(C)O)O[C@H](C)C[C@@H]1N(C)C [Erythromycin Ethylsuccinate] , I see its Complete listed as 0.8907

# Complete (compound: CC1COc2c(N3CCN(C)CC3)c(F)cc3c(=O)c(C(=O)O)cn1c23 (stereo not shown) ) is 0.8562

---

system: NCI-H292 lung cancer cells; experiment: FDA drug screening, complete media vs cholesterol-free media with simvastatin (TABLE 2); assay type: cell-based, human
Structures can show the parent of a compound that is named as a salt.
Property: Difference
Form: value (number only, do not type unit).

Worked cases, Difference given:
>>> assay_value("CCCCCCCCCCCC[N+](C)(C)CCOc1ccccc1.[Br-] [Domiphen (bromide)]")
"−0.06"
>>> assay_value("CC(C)(C)C(=O)OCC(=O)[C@H]1CC[C@H]2[C@@H]3CCC4=CC(=O)CC[C@]4(C)[C@H]3CC[C@]12C [Desoxycorticosterone pivalate]")
0.03
>>> assay_value("O=C(OCC(O)CO)c1ccccc1Nc1ccnc2cc(Cl)ccc12 (stereo not shown) [Glafenine]")
0.12

Now turn to the next compound.
For reference, reported Difference for NC1=NCC2c3ccccc3Cc3ccccc3N12 (stereo not shown) [Epinastine (hydrochloride)] stands at −0.38

---

Complete: recorded values
system: NCI-H292 lung cancer cells; test: FDA drug screening, complete media vs cholesterol-free media without statin (TABLE 1); type: cell-based, human; settings: NCI-H292 cells, complete media, FDA drug library screen
Structures can show the parent of a compound that is named as a salt.
Lab note: jot down the number only; don't add units.

# Complete of CC(=O)[C@@]1(O)CC[C@H]2[C@@H]3CCC4=CC(=O)CC[C@]4(C)[C@H]3CC[C@@]21C [17-Hydroxyprogesterone] = 1.185

Reported Complete ( C[C@@H]1O[C@@H](OC[C@H]2O[C@@H](Oc3c(-c4ccc(O)c(O)c4)oc4cc(O)cc(O)c4c3=O)[C@H](O)[C@@H](O)[C@@H]2O)[C@H](O)[C@H](O)[C@H]1O ) = 1.309

Measured Complete, COc1cccc(OC)c1C(=O)N[C@@H]1C(=O)N2[C@@H]1SC(C)(C)[C@@H]2C(=O)O [Methicillin (sodium salt)] : 1.051

The recorded Complete for NC(=O)N1c2ccccc2CC(=O)c2ccccc21 [Oxcarbazepine] is 1.538

Complete measured on c1ccc2[nH]c(-c3cscn3)nc2c1 = 1.484

Measured Complete of C=C[C@H]1C[N@@]2CC[C@H]1C[C@@H]2[C@@H](O)c1ccnc2ccc(OC)cc12 : 1.951

Per the records, this compound ( CCCc1nc2c(C)cc(-c3nc4ccccc4n3C)cc2n1Cc1ccc(-c2ccccc2C(=O)O)cc1 ) has Complete equal to 1.255

---

Catalogue of compounds with associated Cholesterol-free media + simvastatin (0.04 μM)
tested on: NCI-H292 lung cancer cells; assay: FDA drug screening, complete media vs cholesterol-free media with simvastatin (TABLE 2); type: cell-based, human; conditions: NCI-H292 cells, FDA library drug in cholesterol-free media with simvastatin 0.04 μM
Counter-ions that a name gives are not always drawn.
Give a plain numeric answer without units written out.

Known results for compounds:
>>> assay_value("O=c1cc[nH]c(=O)[nH]1 [Uracil]")
1.203
>>> assay_value("CCN[C@H]1C[C@H](C)S(=O)(=O)c2sc(S(N)(=O)=O)cc21 [Dorzolamide (hydrochloride)]")
0.9476
>>> assay_value("CNC(=O)c1c(I)c(NC(C)=O)c(I)c(C(=O)O)c1I [Iotalamic acid]")
1.459
>>> assay_value("CN1CCCN=C1/C=C/c1cccs1.O=C(O)c1cc2ccccc2c(Cc2c(O)c(C(=O)O)cc3ccccc23)c1O [Pyrantel (pamoate)]")
1.254
>>> assay_value("Cc1ccnc2c1NC(=O)c1cccnc1N2C1CC1 [Nevirapine]")
1.384
>>> assay_value("CC(C)C[C@H](NC(=O)[C@@H](O)[C@H](N)Cc1ccccc1)C(=O)O [Bestatin]")
1.263
>>> assay_value("CN(C)[C@@H]1C(O)=C(C(N)=O)C(=O)[C@@]2(O)C(O)=C3C(=O)c4c(O)cccc4[C@@](C)(O)[C@H]3[C@H](O)[C@@H]12 [Oxytetracycline]")
2.284

Field Cholesterol-free media + simvastatin (0.04 μM) (entry Oc1cc(O)c(Cl)cn1 [Gimeracil] ) reads 2.327
